assay: ovarian cancer cell viability with rucaparib, profiling panel, oncology-focused library, rucaparib conditional (AID 1508598); settings: patient-derived ovarian cancer cells, CellTiter-Glo viability, 144 h; at 0.000305 µM; OCI-P5x cells; without rucaparib; hits give low values
outcome_measure: viability (%)
Answers are plain numbers, in %.

Answered cases to consult:
Nc1nc(F)nc2c1ncn2[C@@H]1O[C@H](COP(=O)(O)O)[C@@H](O)[C@@H]1O	109
N#Cc1c(O)c2c(-c3ccc(-c4ccccc4O)cc3)csc2[nH]c1=O	119
C[C@@H](N)C1CCC(C(=O)Nc2ccncc2)CC1 (some centres undefined)	93.7

Below are 3 compounds. Give each one its viability.
1. Cn1cc(C2=C(c3ccc(Cl)cc3Cl)C(=O)NC2=O)c2ccccc21
2. C[C@H](NC(=O)Cc1cc(F)cc(F)c1)C(=O)N[C@H](C(=O)OC(C)(C)C)c1ccccc1
3. O=C(c1ccc(OCCN2CCCCC2)cc1)c1c(-c2ccc(O)cc2)sc2cc(O)ccc12

[103, 111, 110]

For each of the compounds below, note its viability.
1. CC(C)c1onc(-c2c(Cl)cccc2Cl)c1COc1ccc(/C=C/c2cccc(C(=O)O)c2)c(Cl)c1
2. O=C(O)c1ccc(-c2c[nH]c3ncc(-c4ccccc4)cc23)cc1C1CCCC1
3. CN(C)CCCn1cc(C2=C(c3c[nH]c4ccccc34)C(=O)NC2=O)c2ccccc21

87.3
89.5
96.8

Source listed as PubChem BioAssay.
